# key: entry, value: polymerase ribozyme fitness (log ratio)
B1: TPR t1 (parent)
chain: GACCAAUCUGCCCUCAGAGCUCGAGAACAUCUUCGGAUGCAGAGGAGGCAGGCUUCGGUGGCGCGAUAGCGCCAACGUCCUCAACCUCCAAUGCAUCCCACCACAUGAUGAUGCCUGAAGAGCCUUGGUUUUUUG

Variants of: B1
Assay: polymerase ribozyme fitness, log enrichment relative to wild type (log ratio); higher = more active; in vitro selection for triplet polymerase activity

Past entries and their recorded results:
1) G63A U78C A83G C88G :: -3
2) C22U A105U :: -6.8
3) C3U A6U G52U A111U A118U :: -4.02
4) U7G C88U A119G :: 1.51
5) C56U G93A :: -0.279
6) A29G C40U :: -2.17
7) G63C C85G U130G :: -1.36
8) A41G U54A G61C :: -2.03

Q: Param item = G57U A119G ; retrieve measured polymerase ribozyme fitness (log ratio).
Result: 1.22

Q: For U14A C72U C89A , what is its reported polymerase ribozyme fitness (log ratio)?
Result: -3.16

Q: I would be grateful if you could share the reported polymerase ribozyme fitness (log ratio) for A46C G58C U59A C88G .
Result: -2.01
